Entry source: PubChem BioAssay AID2060611

- Test system: 628569-122-R-J1-PDC complex spheroid viability
- test summary: Anticancer human tumor 628569-122-R-J1-PDC patient-derived head and neck squamous carcinoma cell line growth inhibition [CLK]
- measurement parameters: second compound 0.0316 µM; first compound 1 µM; active compounds read low
Binarize viability, T/C at 80%; below is 1, at or above is -1.

- molecule: "COc1c(OCCCN2CCOCC2)ccc2c3n(c(=NC(=O)c4cnc(N)nc4)nc12)CCN3 + CNC(=O)c1ccc(Nc2nc(OC3CCCC3)c3c(-c4ccc5nc(C)oc5c4)c[nH]c3n2)c(OC)c1"
  cat: 1
- molecule: "Nc1ccn(C2OC(CO)C(O)C2(F)F)c(=O)n1 (stereo not given) + CN1CCN(c2cc(C(=O)Nc3cc4cc(-c5cnn(C)c5)ccc4cn3)ccn2)CC1"
  cat: 1
- molecule: "O=c1[nH]cc(F)c(=O)[nH]1 + CNC(=O)c1ccc(Nc2nc(OC3CCCC3)c3c(-c4ccc5nc(C)oc5c4)c[nH]c3n2)c(OC)c1"
  cat: -1
- molecule: "COC1C=CCC(C)C(C)S(=O)(=O)NC(=O)c2ccc3c(c2)N(CC2CCC21)CC1(CCCc2cc(Cl)ccc21)CO3 (stereo not given) + CNC(=O)c1ccc(Nc2nc(OC3CCCC3)c3c(-c4ccc5nc(C)oc5c4)c[nH]c3n2)c(OC)c1"
  cat: 1

###

- Tested on: 628569-122-R-J1-PDC complex spheroid viability
- test summary: Anticancer human tumor 628569-122-R-J1-PDC cell line growth inhibition [CLK]; active = viability on the fitted dose curve at most 10% of control; inactive = the rest;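 further: spheroids exposed to agents for seven days before readout; 100% = DMSO vehicle control viability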
- measurement parameters: second compound 1 µM; first compound 0.0316 µM
Outcome codes: active, inactive

- compound: "CCCS(=O)(=O)Nc1ccc(F)c(C(=O)c2c[nH]c3ncc(-c4ccc(Cl)cc4)cc23)c1F + CN1CCN(c2cc(C(=O)Nc3cc4cc(-c5cnn(C)c5)ccc4cn3)ccn2)CC1"
  cat: "active"
- compound: "O=c1[nH]cc(F)c(=O)[nH]1 + CN1CCN(c2cc(C(=O)Nc3cc4cc(-c5cnn(C)c5)ccc4cn3)ccn2)CC1"
  cat: "inactive"
- compound: "C#Cc1c(F)ccc2cc(O)cc(-c3ncc4c(N5CC6CCC(C5)N6)nc(OCC56CCCN5CC(F)C6)nc4c3F)c12 (stereo unspecified) + CNC(=O)c1ccc(Nc2nc(OC3CCCC3)c3c(-c4ccc5nc(C)oc5c4)c[nH]c3n2)c(OC)c1"
  cat: "inactive"
- compound: "Nc1ccccc1NC(=O)c1ccc(CNC(=O)OCc2cccnc2)cc1 + CN1CCN(c2cc(C(=O)Nc3cc4cc(-c5cnn(C)c5)ccc4cn3)ccn2)CC1"
  cat: "inactive"
- compound: "CC1(C)CCC(CN2CCN(c3ccc(C(=O)NS(=O)(=O)c4ccc(NCC5CCOCC5)c([N+](=O)[O-])c4)c(Oc4cnc5[nH]ccc5c4)c3)CC2)=C(c2ccc(Cl)cc2)C1 + CNC(=O)c1ccc(Nc2nc(OC3CCCC3)c3c(-c4ccc5nc(C)oc5c4)c[nH]c3n2)c(OC)c1"
  cat: "inactive"
- compound: "CC(Nc1ccc2c(c1)OCCn1cc(N3C(=O)OCC3C(F)F)nc1-2)C(N)=O (stereo unspecified) + CNC(=O)c1ccc(Nc2nc(OC3CCCC3)c3c(-c4ccc5nc(C)oc5c4)c[nH]c3n2)c(OC)c1"
  cat: "inactive"
- compound: "COc1ccc([C@@H](O)c2cc(-c3ncnc4cc(N5CCOCC5)ccc34)c(F)cc2Cl)nn1 + CN1CCN(c2cc(C(=O)Nc3cc4cc(-c5cnn(C)c5)ccc4cn3)ccn2)CC1"
  cat: "active"
- compound: "COc1c(OCCCN2CCOCC2)ccc2c3n(c(=NC(=O)c4cnc(N)nc4)nc12)CCN3 + CN1CCN(c2cc(C(=O)Nc3cc4cc(-c5cnn(C)c5)ccc4cn3)ccn2)CC1"
  cat: "active"
- compound: "CC(CO)NC(=O)c1cc(-c2ccc(Cl)cc2)nn(-c2cnn(C)c2)c1=O (stereo unspecified) + CN1CCN(c2cc(C(=O)Nc3cc4cc(-c5cnn(C)c5)ccc4cn3)ccn2)CC1"
  cat: "active"
- compound: "COC1C=CCC(C)C(C)S(=O)(=O)NC(=O)c2ccc3c(c2)N(CC2CCC21)CC1(CCCc2cc(Cl)ccc21)CO3 (stereo unspecified) + CN1CCN(c2cc(C(=O)Nc3cc4cc(-c5cnn(C)c5)ccc4cn3)ccn2)CC1"
  cat: "active"
- compound: "CCc1c2c(nc3ccc(O)cc13)-c1cc3c(c(=O)n1C2)COC(=O)[C@]3(O)CC + CN1CCN(c2cc(C(=O)Nc3cc4cc(-c5cnn(C)c5)ccc4cn3)ccn2)CC1"
  cat: "active"
